Biological target: Yer064c (UniProt P40041)
Sequence: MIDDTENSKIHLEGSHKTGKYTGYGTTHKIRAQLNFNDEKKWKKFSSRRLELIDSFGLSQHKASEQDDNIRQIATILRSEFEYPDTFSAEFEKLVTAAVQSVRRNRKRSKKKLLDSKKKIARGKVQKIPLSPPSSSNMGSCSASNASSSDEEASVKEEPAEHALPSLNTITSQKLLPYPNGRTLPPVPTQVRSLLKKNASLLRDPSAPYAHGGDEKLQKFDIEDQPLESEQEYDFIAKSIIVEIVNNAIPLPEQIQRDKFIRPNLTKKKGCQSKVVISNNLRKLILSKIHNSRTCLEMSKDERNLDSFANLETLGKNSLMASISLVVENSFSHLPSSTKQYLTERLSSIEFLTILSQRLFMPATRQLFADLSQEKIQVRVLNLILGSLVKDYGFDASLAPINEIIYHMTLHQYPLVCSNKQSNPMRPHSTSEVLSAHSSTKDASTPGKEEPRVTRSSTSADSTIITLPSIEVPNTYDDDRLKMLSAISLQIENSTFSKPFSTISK
Assay: PBM E-score (8-mer binding enrichment) (E-score (-0.5 to 0.5)); higher = stronger / more preferred TF binding
Details: protein concentration: 200 nM; construct: GST-full length
Over roughly 33,000 sequences, “E-score (-0.5 to 0.5)” has its median near -0.036; the highest 2% begin near 0.37. The sample holds the highest values, similar sequences and a random draw of the others, so the mix is not that of the screen.
// F strictly below -0.01 in PBM E-score; T otherwise

>>> class_name("GAAGAGTA")
"T"
>>> class_name("CGGTAGAG")
"F"
>>> class_name("GCAGTCCA")
"T"
>>> class_name("AGAAGGGG")
"F"
>>> class_name("ACCACGGG")
"F"
>>> class_name("ACGCTGTA")
"T"
>>> class_name("GGACTCAC")
"T"
>>> class_name("CGTCTTTC")
"F"
>>> class_name("AAACGAGA")
"T"
>>> class_name("TAGCTAAA")
"T"
>>> class_name("AGATGTCG")
"F"
>>> class_name("AAAGAGTT")
"T"
>>> class_name("ATGGCTCG")
"T"
>>> class_name("CGCTGCTC")
"F"
>>> class_name("GAAGAGTC")
"T"
>>> class_name("CAAGAGTA")
"T"
>>> class_name("AACTAAGC")
"T"
>>> class_name("CCGGTGTA")
"F"
>>> class_name("TGCGGACA")
"F"
>>> class_name("AGTCTTCG")
"T"
>>> class_name("ATGTCTCC")
"T"
>>> class_name("AATACCAC")
"F"
>>> class_name("AGTCTTTA")
"T"
>>> class_name("GACTCCTA")
"T"
>>> class_name("AACTCGCC")
"F"
>>> class_name("ATAGTTGC")
"T"
>>> class_name("CGTGACGC")
"T"
>>> class_name("CTGAGTCC")
"T"
>>> class_name("ACACAGTC")
"T"
>>> class_name("CAAGAGTG")
"F"
>>> class_name("ACTCTTCG")
"T"
>>> class_name("CACTCGTA")
"F"
>>> class_name("AAGTCCTA")
"T"
>>> class_name("AATCTTCG")
"T"
>>> class_name("AGTCTTGG")
"T"
>>> class_name("CAGTCCTA")
"T"
>>> class_name("AGTCACAA")
"T"
>>> class_name("AATCTGAC")
"T"
>>> class_name("CACTCGCC")
"F"
>>> class_name("AACTCGTA")
"F"
>>> class_name("ATCTGGCA")
"F"
>>> class_name("GACTCCTC")
"T"
>>> class_name("GAACTGAC")
"F"
>>> class_name("CGTCACAA")
"F"
>>> class_name("CGTCTTCA")
"F"
>>> class_name("ATGGCTCC")
"T"
>>> class_name("GGGTTTCA")
"F"
>>> class_name("AGATAGGA")
"F"
>>> class_name("AGGTAGGG")
"F"
>>> class_name("AGTCTTCA")
"T"
>>> class_name("ATTCACAG")
"T"
>>> class_name("TCGTAGCA")
"T"
>>> class_name("AAAGTGAC")
"T"
>>> class_name("GGGCGCAC")
"F"
>>> class_name("CAGCAAGA")
"F"
>>> class_name("AGTGACTC")
"T"
>>> class_name("CTGTAAGC")
"F"
>>> class_name("GGTCACAC")
"T"
>>> class_name("CGTCACAG")
"F"
>>> class_name("CATGTCTA")
"T"
>>> class_name("CAGTCTTA")
"T"
>>> class_name("CAAGAGTC")
"T"
>>> class_name("GAGCGCGC")
"F"
>>> class_name("GGACTCCC")
"T"
>>> class_name("ATGGCTCA")
"T"
>>> class_name("CACTCCTC")
"F"
>>> class_name("ATGTCTCA")
"T"
>>> class_name("ATTCTTCC")
"F"
>>> class_name("GAGTCCTA")
"T"
>>> class_name("CGCCCGAC")
"F"
